Test system: MT4
Experimental Protocol: Cytotoxic concentration which reduces the cell viability of HIV-1 IIIB infected T4 lymphoblastoid MT-4 cells by 50%
Format: functional
Assay Setup: Homo sapiens
Experimental Endpoint: CC50 (µM)
Give your result in µM as a bare value.

Compound	Unit Abbreviation	Numeric Value
CCc1c(Sc2cc(C)cc(C)c2)n(CCCCC(=O)NCCCCCCCCCCNC(=O)CCc2cn(C3CC(N=[N+]=[N-])C(CO)O3)c(=O)[nH]c2=O)c(=O)[nH]c1=O (stereo not drawn)	µM	10

For the next question, use this compound.
If you can, please state the reported CC50 value of [N-]=[N+]=NC1CC(n2cc(CCC(=O)NCCCCCCCCCCN)c(=O)[nH]c2=O)OC1CO (stereo not drawn) . 60

Data origin, for the record: ChEMBL document CHEMBL1133178
